target: recombinant SARS-CoV-2 Main protease (Mpro) (Severe acute respiratory syndrome coronavirus 2 (2019-nCoV) (SARS-CoV-2), UniProt P0DTD1); assay: Cov Mpro Biochemical IC50 Assay; conditions: recombinant SARS-CoV-2 Mpro, fluorogenic peptide substrate; read-out: MPro IC50
The label is YES for IC50 below 30 nM and NO for IC50 equal to or exceeding 30 nM.

COCCOc1ccc(Cl)c(-c2ccc3c(=O)n(-c4cncc5ccccc45)c(=O)[nH]c3c2)c1 [Example 251]	NO
COc1cnc(Cl)c(-c2ccc3c(=O)n(-c4cncc5ccccc45)c(=O)[nH]c3c2)c1 [Example 257]	NO
O=c1[nH]c2cc(-c3c(O)cccc3Cl)sc2c(=O)n1-c1cncc2ccccc12 [Example 8]	NO
Cc1noc(C)c1-c1cccc(Cl)c1-c1cc2[nH]c(=O)n(-c3cncc4ccccc34)c(=O)c2s1 [Example 355]	YES
O=c1[nH]c2cc(-c3c(Cl)cccc3-c3ccc4c(c3)OC(F)(F)O4)ccc2c(=O)n1-c1cncc2ccccc12 [Example 357]	NO
Cc1cc(-c2cccc(Cl)c2-c2ccc3c(=O)n(-c4cncc5ccccc45)c(=O)[nH]c3c2)ccn1 [Example 331]	YES

----------
molecular target: recombinant SARS-CoV-2 Main protease (Mpro) (Severe acute respiratory syndrome coronavirus 2 (2019-nCoV) (SARS-CoV-2)); assay: Cov Mpro Biochemical IC50 Assay; details: recombinant SARS-CoV-2 Mpro 7.5 nM, fluorogenic peptide substrate 40 μM; read-out: MPro IC50
pIC50: −log10 of the molar value.
property: pIC50

COc1cc(-c2cc3[nH]c(=O)n(-c4cncc(Cl)c4C)c(=O)c3s2)c(Cl)cc1F [Example 743]	7.92
COc1ccc(C#N)c(-c2cc3[nH]c(=O)n(-c4cncc5cccnc45)c(=O)c3s2)c1 [Example 460]	8.05
COc1ccc(Cl)c(-c2cc3[nH]c(=O)n(-c4cncc5ccn(C)c45)c(=O)c3s2)c1 [Example 455]	8.14
COc1cc(-c2cc3c(s2)c(=O)n(-c2cncc4ncc(C)n24)c(=O)n3CCC#N)c(Cl)cc1F [Example 952]	7.96
O=C1C[C@@H](Nc2ccc3cncc(-n4c(=O)[nH]c5cc(-c6ccccc6Cl)sc5c4=O)c3c2)CN1 [Example 405]	7.92
COc1cc(-c2cc3c(=O)n(-c4cncc5ccccc45)c(=O)n(CCC#N)c3s2)c(Cl)cc1F [Example 867]	8.01
Cn1ncc2cncc(-n3c(=O)c4sc(-c5cc(Cl)ccc5C#N)cc4n(CCC#N)c3=O)c21 [Example 774]	8.20
COc1cnc(Cl)c(-c2cc3c(s2)c(=O)n(-c2cncc(C)c2)c(=O)n3CCC#N)c1 [Example 885]	8.12
N#Cc1ccccc1-c1cc2[nH]c(=O)n(-c3cncc4ccccc34)c(=O)c2s1 [Example 530]	7.92
COc1ccc(Cl)c(-c2cc3[nH]c(=O)n(-c4cncc5ccc(N6C(=O)COC[C@@H]6C)cc45)c(=O)c3s2)c1 [Example 574]	8.20
COc1cc(-c2cc3c(s2)c(=O)n(-c2cncc4nc(C)sc24)c(=O)n3CCC#N)c(Cl)cc1F [Example 941]	8.12
COc1cc(-c2cc3c(s2)c(=O)n(-c2cncc4cccnc24)c(=O)n3C)c(Cl)cc1F [Example 994]	8.07
CC(=O)N1CC2(C1)CN(c1ccc3cncc(-n4c(=O)[nH]c5cc(-c6ccccc6Cl)sc5c4=O)c3c1)C2 [Example 422]	8.11
COc1cc(Cl)c(-c2cc3[nH]c(=O)n(-c4cncc5ccccc45)c(=O)c3s2)cc1Cl [Example 724]	8.03

----------
test system: SARS-CoV-2-NLuc; assay: microbe, parasite or virus in culture; type: cell-based, SARS Coronavirus 2; conditions: Severe acute respiratory syndrome coronavirus, 48 h; read-out: MPro EC50
property: log10 EC50 (log10 of the value in nM)

COc1cnc(C#N)c(-c2cc3[nH]c(=O)n(-c4cncc5cccc(F)c45)c(=O)c3s2)c1 [Example 761]	2.60
COc1c(C)cncc1-n1c(=O)[nH]c2cc(-c3ccccc3Cl)sc2c1=O [Example 213]	1.49
Cn1ncc2cncc(-n3c(=O)[nH]c4cc(-c5cc(F)ccc5C#N)sc4c3=O)c21 [Example 700]	2.67
CC(C)(C)c1cncc(-n2c(=O)[nH]c3cc(-c4ccccc4Cl)sc3c2=O)c1 [Example 577]	4.08
COc1ccc(Cl)c(-c2ccc3c(=O)n(-c4cncc(C)c4OCC(F)(F)F)c(=O)[nH]c3c2)c1 [Example 375]	2.80
COc1cc(-c2cc3[nH]c(=O)n(-c4cncc(Cl)c4)c(=O)c3s2)c(Cl)cc1F [Example 715]	1.00
Cn1c(C(F)(F)F)nc2cncc(-n3c(=O)c4sc(-c5ccc(F)cc5Cl)cc4n(CCC#N)c3=O)c21 [Example 857]	2.54
O=c1[nH]c2cc(-c3c(Cl)cccc3-c3cc(C(F)(F)F)c4ncnn4c3)ccc2c(=O)n1-c1cncc2ccccc12 [Example 145]	1.63
COc1cc(-c2cc3c(s2)c(=O)n(-c2cc(C)cnc2F)c(=O)n3CCC#N)c(Cl)cc1F [Example 770]	0.68
COc1ccc(Cl)c(-c2cc3[nH]c(=O)n(-c4cncc5cc(OC)ccc45)c(=O)c3s2)c1 [Example 624]	2.59
Cc1cc(-c2cccc(Cl)c2-c2cc3[nH]c(=O)n(-c4cncc5ccccc45)c(=O)c3s2)cnn1 [Example 111]	1.90
O=c1[nH]c2cc(-c3ccccc3Cl)ccc2c(=O)n1-c1cncc(C(F)(F)F)c1 [Example 578]	3.99
Cn1ncc2cncc(-n3c(=O)[nH]c4cc(-c5c(Cl)cccc5-c5cncc(C#N)c5)sc4c3=O)c21 [Example 677]	1.65
O=c1[nH]c2cc(-c3c(Cl)cccc3Cl)sc2c(=O)n1-c1cncc(C2CC2)c1 [Example 370]	2.59
COc1cc(-c2cc3[nH]c(=O)n(-c4cncc5ccncc45)c(=O)c3s2)c(Cl)cc1F [Example 739]	1.24
COc1ccc(Cl)c(-c2cc3[nH]c(=O)n(-c4cncc5ccccc45)c(=O)c3cc2F)c1 [Example 211]	1.85
Cn1ncc2cncc(-n3c(=O)c4sc(-c5ccc(F)cc5Cl)cc4n(CCC#N)c3=O)c21 [Example 769]	1.19
COc1cc(-c2cc3[nH]c(=O)n(-c4cncc(Cl)c4C)c(=O)c3s2)c(Cl)cc1F [Example 743]	1.21
Cc1nn(C)cc1-c1cc2[nH]c(=O)n(-c3cncc(C4CC4)c3)c(=O)c2s1 [Example 366]	4.51
Cc1noc(C)c1-c1ccc2c(=O)n(-c3cncc4ccccc34)c(=O)[nH]c2c1 [Example 44]	3.48
O=c1[nH]c2cc(-c3ccccc3Cl)ccc2c(=O)n1-c1cnccc1N1CCNCC1 [Example 116]	3.51
O=c1[nH]c2cc(-c3ccccc3Cl)sc2c(=O)n1-c1cncc(C(F)(F)F)c1 [Example 576]	2.18
O=c1c2sc(-c3ccccc3Cl)cc2[nH]c(=S)n1-c1cncc2ccccc12 [Example 176]	2.47
N#CCCn1c(=O)n(-c2cncc(C(F)F)c2)c(=O)c2sc(-c3ccccc3C#N)cc21 [Example 888]	1.96
O=c1[nH]c2cc(-c3ccccc3Cl)ccc2c(=O)n1-c1cnccc1N1CCOCC1 [Example 128]	3.12

----------
target: recombinant SARS-CoV-2 Main protease (Mpro) (Severe acute respiratory syndrome coronavirus 2 (2019-nCoV) (SARS-CoV-2)); test: Cov Mpro Biochemical IC50 Assay; conditions: recombinant SARS-CoV-2 Mpro 7.5 nM, fluorogenic peptide substrate 40 μM; read-out: MPro IC50
pIC50: −log10 of the molar value.
# label = YES if pIC50 >= 8 else NO

COc1cc(-c2cc3c(s2)c(=O)n(-c2cncc4ccc(C#N)cc24)c(=O)n3CCC#N)c(Cl)cc1F [Example 1062]	YES
COc1cc(-c2cc3c(s2)c(=O)n(-c2cncc4cnn(C)c24)c(=O)n3CCC#N)c(Cl)cc1F (single isomer, unassigned) [Example 645]	NO
COc1cnc(Cl)c(-c2cc3c(s2)c(=O)n(-c2cncc4cccc(F)c24)c(=O)n3CCC#N)c1 (single isomer, unassigned) [Example 1095]	NO

----------
Readings of pIC50 for the listed molecules
target: recombinant SARS-CoV-2 Main protease (Mpro) (Severe acute respiratory syndrome coronavirus 2 (2019-nCoV) (SARS-CoV-2)); assay: Cov Mpro Biochemical IC50 Assay; conditions: recombinant SARS-CoV-2 Mpro, fluorogenic peptide substrate; read-out: MPro IC50
pIC50: −log10 of the molar value.
property: pIC50

O=c1[nH]c2cc(-c3ccccc3Cl)sc2c(=O)n1-c1cnccc1N1CCN(C2COC2)CC1	6.81
CN1C(=O)COc2cc(-c3cccc(Cl)c3-c3ccc4c(=O)n(-c5cncc6ccccc56)c(=O)[nH]c4c3)ccc21	7.86
Cc1ccc(Cl)c(-c2ccc3c(=O)n(-c4cncc5ccccc45)c(=O)[nH]c3c2)c1	6.82
CC(C)Oc1cncc(-n2c(=O)[nH]c3cc(-c4ccccc4Cl)sc3c2=O)c1	5.34
NC(=O)c1ccc(-c2cccc(Cl)c2-c2ccc3c(=O)n(-c4cncc5ccccc45)c(=O)[nH]c3c2)cc1	7.72
O=c1[nH]c2cc(-c3ccccc3Cl)ccc2c(=O)n1-c1cnccc1N1CCNCC1	6.10
NC(=O)c1cccc(-c2cccc(Cl)c2-c2ccc3c(=O)n(-c4cncc5ccccc45)c(=O)[nH]c3c2)c1	7.98

The values you see were collected from patent US20240116946A1.
